- targetEntity: ITK (Homo sapiens (Human), UniProt Q08881)
- Sequence (Q08881 whole entry): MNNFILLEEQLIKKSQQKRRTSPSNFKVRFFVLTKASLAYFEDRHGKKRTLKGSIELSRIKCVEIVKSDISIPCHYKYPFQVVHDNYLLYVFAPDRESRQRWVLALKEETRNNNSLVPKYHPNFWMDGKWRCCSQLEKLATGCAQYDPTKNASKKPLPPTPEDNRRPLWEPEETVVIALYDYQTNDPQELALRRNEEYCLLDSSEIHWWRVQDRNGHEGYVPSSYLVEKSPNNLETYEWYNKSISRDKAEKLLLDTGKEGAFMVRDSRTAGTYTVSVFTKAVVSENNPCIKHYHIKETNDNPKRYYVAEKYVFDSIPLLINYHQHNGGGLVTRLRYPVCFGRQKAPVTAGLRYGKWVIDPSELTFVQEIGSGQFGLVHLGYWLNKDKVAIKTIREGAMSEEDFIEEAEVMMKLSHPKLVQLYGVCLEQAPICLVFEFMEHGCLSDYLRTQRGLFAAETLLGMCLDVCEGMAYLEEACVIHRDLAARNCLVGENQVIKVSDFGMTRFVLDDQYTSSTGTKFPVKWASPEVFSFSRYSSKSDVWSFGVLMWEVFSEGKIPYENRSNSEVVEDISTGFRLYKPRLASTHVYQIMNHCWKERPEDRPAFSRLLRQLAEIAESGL
- experimentNotes: ITK kinase inhibition assay
- recordedConditions: micro-fluidic detection, 3 hours at 25° C.
- Protocol: The in vitro kinase assays were performed at Nanosyn utilizing micro-fluidic detection technology. […] Terminated plates were analyzed using Caliper LabChip® 3000 microfluidic electrophoresis instrument (Caliper Life Sciences/Perkin Elmer). […] As substrate and product are separated by electrophoresis, two peaks of fluorescence are observed. Change in the relative fluorescence intensity of the substrate and product peaks was the parameter measured, reflecting enzyme activity. […]
pEC50: −log10 of the molar value.

| compound | pEC50 |
| --- | --- |
| C=CC(=O)Nc1cccc(-n2c(NC(=O)c3nccs3)nc3cc(CN[C@@H](C)C(C)(C)C)ccc32)c1 [Compound 12] | < 7.00 |
| C=CC(=O)Nc1cccc(-n2c(NC(=O)c3ccno3)nc3cc(CN[C@@H](C)C(C)(C)C)ccc32)c1 [Compound 38] | > 8.00 |
| C=CC(=O)Nc1cccc(-n2c(NC(=O)c3cncs3)nc3cc(CN[C@@H](C)C(C)(C)C)ccc32)c1 [Compound 17] | 7.00 to 8.00 |
| C=CC(=O)Nc1cccc(-n2c(NC(=O)c3ccc(-c4cnco4)s3)nc3cc(CN[C@@H](C)C(C)(C)C)ccc32)c1 [Compound 25] | > 8.00 |
| C=CC(=O)N[C@H]1CCC[C@@H](n2c(NC(=O)c3ccc(C(F)F)s3)nc3cc(CN[C@@H](C)C(C)(C)C)ccc32)C1 [Compound 68] | > 8.00 |
| C=CC(=O)Nc1cccc(-n2c(NC(=O)c3ccns3)nc3cc(CN[C@@H](C)C(C)(C)C)ccc32)c1 [Compound 43] | > 8.00 |
| C=CC(=O)Nc1cccc(-n2c(NC(=O)c3ccc(C(F)F)s3)nc3cc(CN4CCOCC4)ccc32)c1 [Compound 50] | > 8.00 |
| C=CC(=O)Nc1cccc(-n2c(NC(=O)c3ccccn3)nc3cc(CN[C@@H](C)C(C)(C)C)ccc32)c1 [Compound 27] | < 7.00 |
| C=CC(=O)Nc1cccc(-n2c(NC(=O)c3cccc(C#N)c3)nc3cc(CN[C@@H](C)C(C)(C)C)ccc32)c1 [Compound 9] | > 8.00 |
| C=CC(=O)Nc1cccc(-n2c(NC(=O)c3cccnc3)nc3cc(CN[C@@H](C)C(C)(C)C)ccc32)c1 [Compound 19] | > 8.00 |
| C=CC(=O)N[C@H]1CC[C@@H](n2c(NC(=O)c3ccc(C(F)F)s3)nc3cc(CN[C@@H](C)C(C)(C)C)ccc32)CC1 [Compound 3] | 7.00 to 8.00 |
| C=CC(=O)N[C@@H]1CCC[C@H](n2c(NC(=O)c3ccc(C(F)F)s3)nc3cc(CN[C@@H](C)C(C)(C)C)ccc32)C1 [Compound 81] | > 8.00 |
| C=CC(=O)N[C@H]1CC[C@@H](n2c(NC(=O)c3ccc(C(F)F)s3)nc3cc(CN[C@@H](C)C(C)(C)C)ccc32)C1 [Compound 62] | > 8.00 |
| C=CC(=O)Nc1cccc(-n2c(NC(=O)c3ccc(C(F)F)s3)nc3cc(CN[C@H]4CC[C@H](O)CC4)ccc32)c1 [Compound 31] | > 8.00 |

---

- System: Human PBMCs
- experimentNotes: CD3/CD28 mediated PBMC proliferation assay
- Format: cell-based
- recordedConditions: proliferation of human PBMCs stimulated with anti-CD3 and anti-CD28, 72 hours, Cell Titer-Glo
pEC50: −log10 of the molar value.

| smilesCode | pEC50 |
| --- | --- |
| C=CC(=O)Nc1cccc(-n2c(NC(=O)c3ccc(OCc4ccccc4)cc3)nc3cc(CN[C@@H](C)C(C)(C)C)ccc32)c1 | < 7.00 |
| C=CC(=O)Nc1cccc(-n2c(NC(=O)c3cccc(O)c3)nc3cc(CN[C@@H](C)C(C)(C)C)ccc32)c1 | < 7.00 |
| C=CC(=O)Nc1cccc(-n2c(NC(=O)c3ccc(C(F)F)s3)nc3cc(C(=O)N(C)C4CCCCC4)ccc32)c1 | 7.00 to 8.00 |
| C=CC(=O)Nc1cccc(-n2c(NC(=O)c3ccc(C(F)F)s3)nc3cc(CN4C[C@@H](C)O[C@@H](C)C4)ccc32)c1 | > 8.00 |
| C=CC(=O)Nc1cccc(-n2c(NC(=O)c3ccc(C(F)F)s3)nc3cc(CN4CCCC4)ccc32)c1 | > 8.00 |
| C=CC(=O)Nc1cccc(-n2c(NC(=O)c3cccc(F)c3)nc3cc(CN[C@@H](C)C(C)(C)C)ccc32)c1 | 7.00 to 8.00 |
| C=CC(=O)Nc1cccc(-n2c(NC(=O)c3ccc(C(F)F)s3)nc3cc(CN[C@H]4CC[C@@H](OCCOC)CC4)ccc32)c1 | > 8.00 |

---

- Test system: Human PBMCs
- experimentNotes: CD3/CD28 mediated PBMC proliferation assay
- Assay type: cell-based
- recordedConditions: proliferation of human PBMCs stimulated with anti-CD3 and anti-CD28, 72 hours, Cell Titer-Glo
pEC50: −log10 of the molar value.

| smilesCode | pEC50 |
| --- | --- |
| CC#CC(=O)Nc1cccc(-n2c(NC(=O)c3ccc(C(F)F)s3)nc3cc(CN[C@@H](C)C(C)(C)C)ccc32)c1 | < 7.00 |
| C=CC(=O)N1CCc2ccc(-n3c(NC(=O)c4ccc(C(F)F)s4)nc4cc(CN[C@@H](C)C(C)(C)C)ccc43)cc21 | 7.00 to 8.00 |
| C=CC(=O)N[C@H]1C[C@@H](n2c(NC(=O)c3ccc(C(F)F)s3)nc3cc(C(=O)N(C)C4CCCCC4)ccc32)C1 | < 7.00 |
| C=CC(=O)N[C@H]1C[C@@H](n2c(NC(=O)c3ccc(C(F)F)s3)nc3cc(CN[C@@H](C)C(C)(C)C)ccc32)C1 | 7.00 to 8.00 |
| C=CC(=O)N(C)c1cccc(-n2c(NC(=O)c3ccc(C(F)F)s3)nc3cc(CN[C@@H](C)C(C)(C)C)ccc32)c1 | 7.00 to 8.00 |
| C=CC(=O)N[C@H]1CC[C@@H](n2c(NC(=O)c3ccc(C(F)F)s3)nc3cc(CN[C@@H](C)C(C)(C)C)ccc32)CC1 | < 7.00 |
| C=CC(=O)Nc1cccc(-n2c(NC(=O)c3ccc(C(F)F)s3)nc3cc(CN4CCOCC4)ccc32)c1 | > 8.00 |
| C=CC(=O)Nc1cccc(-n2c(NC(=O)c3cnn(C)c3)nc3cc(CN[C@@H](C)C(C)(C)C)ccc32)c1 | < 7.00 |
| C=CC(=O)Nc1cccc(-n2c(NC(=O)c3cccc(OC)c3)nc3cc(CN[C@@H](C)C(C)(C)C)ccc32)c1 | < 7.00 |
| C=CC(=O)Nc1cc(-n2c(NC(=O)c3ccc(C(F)F)s3)nc3cc(CN[C@@H](C)C(C)(C)C)ccc32)ccc1F | < 7.00 |
| C=CC(=O)Nc1cccc(-n2c(NC(=O)c3ccc(C(F)F)s3)nc3cc(CO)ccc32)c1 | 7.00 to 8.00 |
| C=C(F)C(=O)Nc1cccc(-n2c(NC(=O)c3ccc(C(F)F)s3)nc3cc(CN[C@@H](C)C(C)(C)C)ccc32)c1 | 7.00 to 8.00 |
| C=CC(=O)N[C@H]1CCC[C@@H](n2c(NC(=O)c3ccc(C(F)F)s3)nc3cc(CN[C@@H](C)C(C)(C)C)ccc32)C1 | > 8.00 |
| C=CC(=O)N[C@H]1C[C@@H](n2c(NC(=O)c3ccc(C(F)F)s3)nc3cc(NC(=O)C4CCCCC4)ccc32)C1 | < 7.00 |
| C=CC(=O)Nc1cccc(-n2c(NC(=O)c3cccc(Cl)c3)nc3cc(CN[C@@H](C)C(C)(C)C)ccc32)c1 | 7.00 to 8.00 |
| C=CC(=O)Nc1cccc(-n2c(NC(=O)c3ccc(C(F)F)s3)nc3cc(CN[C@H](C)C(C)(C)C)ccc32)c1 | > 8.00 |
| C=CC(=O)Nc1cccc(-n2c(NC(=O)c3ccncc3)nc3cc(CN[C@@H](C)C(C)(C)C)ccc32)c1 | 7.00 to 8.00 |

---

The entries below are paired with their reported pEC50.
- targetEntity: RLK/TXK (Homo sapiens (Human), UniProt P42681)
- Sequence (P42681 whole entry): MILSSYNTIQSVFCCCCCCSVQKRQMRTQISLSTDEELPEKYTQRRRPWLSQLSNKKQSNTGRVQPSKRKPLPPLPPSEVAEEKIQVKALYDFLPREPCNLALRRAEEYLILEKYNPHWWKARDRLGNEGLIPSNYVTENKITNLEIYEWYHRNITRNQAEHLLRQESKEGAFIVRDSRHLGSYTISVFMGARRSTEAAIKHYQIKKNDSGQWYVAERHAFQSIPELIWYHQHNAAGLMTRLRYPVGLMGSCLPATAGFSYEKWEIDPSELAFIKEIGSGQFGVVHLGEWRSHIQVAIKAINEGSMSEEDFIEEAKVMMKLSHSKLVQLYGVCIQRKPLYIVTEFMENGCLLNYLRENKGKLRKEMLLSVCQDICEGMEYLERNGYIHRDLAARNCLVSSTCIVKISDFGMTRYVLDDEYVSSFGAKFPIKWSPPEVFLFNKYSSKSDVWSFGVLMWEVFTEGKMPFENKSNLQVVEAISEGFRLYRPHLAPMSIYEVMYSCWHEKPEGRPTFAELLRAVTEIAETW
- experimentNotes: RLK/TXK kinase inhibition assay
- recordedConditions: micro-fluidic detection, 3 hours at 25° C.
pEC50: −log10 of the molar value.
measuredQuantity: pEC50

| molecule | observed |
| --- | --- |
| C=CC(=O)N[C@@H]1CCC[C@H](n2c(NC(=O)c3ccc(C(F)F)s3)nc3cc(CN[C@@H](C)C(C)(C)C)ccc32)C1 [Compound 81] | 7.00 to 8.00 |
| C=CC(=O)Nc1cccc(-n2c(NC(=O)c3cccnc3)nc3cc(CN[C@@H](C)C(C)(C)C)ccc32)c1 [Compound 19] | 7.00 to 8.00 |
| C=CC(=O)Nc1cccc(-n2c(NC(=O)c3ccc(C(F)F)s3)nc3cc(CN[C@H]4CC[C@H](O)CC4)ccc32)c1 [Compound 31] | > 8.00 |
| C=CC(=O)Nc1cccc(-n2c(NC(=O)c3ccno3)nc3cc(CN[C@@H](C)C(C)(C)C)ccc32)c1 [Compound 38] | > 8.00 |
| C=CC(=O)Nc1cccc(-n2c(NC(=O)c3ccc(C(F)F)s3)nc3cc(N(C)C(=O)[C@H](C)N4CCOCC4)ccc32)c1 [Compound 77] | > 8.00 |
| C=CC(=O)Nc1cccc(-n2c(NC(=O)c3ccns3)nc3cc(CN[C@@H](C)C(C)(C)C)ccc32)c1 [Compound 43] | > 8.00 |
| C=CC(=O)Nc1cccc(-n2c(NC(=O)c3ccncc3)nc3cc(CN[C@@H](C)C(C)(C)C)ccc32)c1 [Compound 16] | > 8.00 |
